PSV neutralization IC50 overview
- Target Or Test System: SARS-CoV-1 spike on pseudovirus (SARS-CoV-1, UniProt P59594 14-1255)
- Assay Summary: cell-based or functional assay
Reported Metric: PSV neutralization IC50

1) L12.cP09C07 (antibody, V domains shown, human IgG1) VH: QVQLVQSGAEVKKPGASVKVSCKASGYIYSGYFMHWVRQAPGQGLEWMGWISPDSGGANYAQTFQGRVTMTRDTSTTTAHMELSRLRSDDTAVYYCARGPRYSGTHFDYWGQGTLVTVSS VL: QSALTQPASVSGSPGQSLTISCTGTSSDVGGYNYVSWYQQHPDKAPKLMIYDVNNRPSGVSNRFSGSKSGSTASLTISGLQAEDEADYYCSSYAGSSTQVFGGGTKLIVL	> 50 mg/L
2) L12.cP07E10 (antibody, V domains shown, human IgG1) VH: EVQLVESGGGLIQPGGSLRLSCAASGFTVSSNYMSWVRQAPGKGLEWVSVIYSGGSTYYADSVKGRFTISRDNSKNTLYLQMNSLRAEDTAVYYCARDPYGYSSIWDGQGGHWGQGTLVTVSS VL: DVVMTQSPSSLSASVGDRVTITCQASQDISNYLNWYQQKPGKAPKLLIYDASNFATGVPSRFSGTGSGTDFTFTISSLQPEDIATYYCQQYDNLPITFGQGTRLEIK	> 50 mg/L
3) L12.bP12E05 (antibody, V domains shown, human IgG1) VH: EVQLVQSGAEVKKPGASVKVTCKTSGYIFSGYYMHWVRQVPGQGLEWMGWISPDSGATNYAQKFQGRVTMTRDTSITTSYVELTWLKSDDTAVYYCARGPRYSGTYFDFWGQGTLVTVSS VL: QAVVTQPASVSGSPGQSLTISCTGTSSDIGGFNYVSWYQQHPGKAPKLMIFDVSKRPSGVPNRFSGSKSGNTASLTISGLQAEDEGDYYCSSYTISSAQVFGGGTKLTVL	> 50 mg/L
